FYI, the data here is from patent US20170052184A1.

biological target: bovine serum albumin (BSA) (bovine) (UniProt P02769); assay: EIA, BSA background
Sequence (P02769 25-607 limits assumed): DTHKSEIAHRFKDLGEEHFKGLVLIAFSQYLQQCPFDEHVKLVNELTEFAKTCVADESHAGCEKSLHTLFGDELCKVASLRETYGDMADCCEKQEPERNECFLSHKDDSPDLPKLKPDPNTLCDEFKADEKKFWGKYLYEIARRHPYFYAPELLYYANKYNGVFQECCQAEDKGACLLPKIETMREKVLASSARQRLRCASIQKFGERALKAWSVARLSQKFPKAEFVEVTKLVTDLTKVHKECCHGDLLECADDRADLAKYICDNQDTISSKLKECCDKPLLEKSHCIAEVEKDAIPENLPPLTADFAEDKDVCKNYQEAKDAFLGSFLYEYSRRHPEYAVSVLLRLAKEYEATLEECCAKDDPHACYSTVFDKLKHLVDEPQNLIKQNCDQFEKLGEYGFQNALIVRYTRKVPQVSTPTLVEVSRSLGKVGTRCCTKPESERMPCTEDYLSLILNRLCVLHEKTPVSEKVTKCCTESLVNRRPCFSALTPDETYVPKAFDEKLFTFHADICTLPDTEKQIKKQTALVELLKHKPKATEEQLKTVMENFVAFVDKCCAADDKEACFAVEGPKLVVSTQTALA
As shown below, each of these binders has a reported OD (A492) value.
The reply must contain the numeric value and, after it, the unit.

Some binders with recorded OD (A492):
binder	OD (A492)
HCV 208B-327 (antibody, V domains shown) VH: EVQLVESGGGLVKPGGSLKLSCAASGFTFSDSYMYWVRQTPDQRLEWVATISDGGSYTFYPDSVKGRFTISRDNAQNNLYLQMSSLKSEDTAMYYCASPHAGYFGWFAYWGRGTLVTVSA VL: DIVMTQAAFSNPVTPGTSVSISCRSSKSLLHSNGITYLYWYLQKPGQSPQLLIYQMSKIASGVPDRFRSSGSGTDFTLRISRVEAADVGVYYCAQNLELPWTFGGGTKLEIKR	0.09 OD
HCV 208A-874 (antibody, V domains shown) VH: QVQLQQPGAELVKPGASVKLSCKASGYTLSSYWMHWVKQRPGQGLEWIGEIHPSDSYTSYNQKFKDKATLTVDKSSSTAYMQLSSLTSEDSAVYYCARGGYYRYDEFAYWGQGTLVTVSA VL: DIVMTQSHKFMSTSIGDRVSITCKASQNVSPAVAWYQQKPGQSPKLLIYSASSRYTGVPDRFTGSGSGTAFTFTISSVQAEDLAVYFCQQHFSTPWTFGGGTMLEIKR	0.1 OD

Reported OD (A492) for HCV 208B-911 (antibody, V domains shown) VH: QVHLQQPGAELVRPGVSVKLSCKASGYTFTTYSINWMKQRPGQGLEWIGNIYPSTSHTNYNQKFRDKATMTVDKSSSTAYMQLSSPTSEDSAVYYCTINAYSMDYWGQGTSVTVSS VL: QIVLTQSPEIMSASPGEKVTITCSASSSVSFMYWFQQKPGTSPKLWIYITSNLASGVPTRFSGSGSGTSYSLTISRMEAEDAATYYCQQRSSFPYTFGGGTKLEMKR : what is it? 0.17 OD
